Tested on: Pseudomonas aeruginosa
test_name: Antibacterial activity against Pseudomonas aeruginosa ATCC 10145 assessed as growth inhibition after 24 hrs by dilution tube method
Assay type: functional
setup_conditions: ATCC 10145, 24 h
assay_endpoint: MIC

| chemical_string | assay_endpoint | result |
| --- | --- | --- |
| Cc1cc(OCC[N+](C)(C)Cc2ccc(Br)o2)c(C(C)C)cc1Cl.[Br-] | MIC | 5 µg/mL |
| C[N+](C)(CCCCCOc1c(Br)cc(Br)cc1Br)Cc1ccc([N+](=O)[O-])o1.[Br-] | MIC | 7.5 µg/mL |
| Cc1cc(OCCCC[N+](C)(C)Cc2ccc([N+](=O)[O-])o2)c(C(C)C)cc1Cl.[Br-] | MIC | 1.5 µg/mL |
| C[N+](C)(CCOc1ccc(Cl)cc1Cl)Cc1ccc([N+](=O)[O-])o1.[Br-] | MIC | 100 µg/mL |
| C[N+](C)(CCCCCOc1ccc(Cl)cc1Cl)Cc1ccc(Br)o1.[Br-] | MIC | 10 µg/mL |

Dear colleague, could you please provide MIC for the compounds listed below?
1. C[N+](C)(CCCCCCCCCCCCOc1c(Br)cc(Br)cc1Br)Cc1ccc(Br)o1.[Br-]
2. C[N+](C)(CCCCCCOc1c(Br)cc(Br)cc1Br)Cc1ccc([N+](=O)[O-])o1.[Br-]
3. Cc1cc(OCCCCCCCCCC[N+](C)(C)Cc2ccc([N+](=O)[O-])o2)c(C(C)C)cc1Cl.Cc1ccc(S(=O)(=O)[O-])cc1
4. C[N+](C)(CCCCOc1c(Br)cc(Br)cc1Br)Cc1ccc(Br)o1.[Br-]

# output
["50 µg/mL", "2.5 µg/mL", "50 µg/mL", "5 µg/mL"]

----------
Can you tell me MIC for the items I'm about to list?
Tested on: Staphylococcus aureus
test_name: Antibacterial activity against Staphylococcus aureus ATCC 6538 assessed as growth inhibition after 24 hrs by dilution tube method
Assay type: functional
setup_conditions: ATCC 6538, 24 h
Numbers only, in µg/mL.

| chemical_string | MIC, µg/mL |
| --- | --- |
| C[N+](C)(CCCCCCCOc1c(Br)cc(Br)cc1Br)Cc1ccc(Br)o1.[Br-] | 3 |
| Cc1cc(OCCC[N+](C)(C)Cc2ccc([N+](=O)[O-])o2)c(C(C)C)cc1Cl.[Br-] | 25 |
| C[N+](C)(CCCOc1c(Br)cc(Br)cc1Br)Cc1ccc([N+](=O)[O-])o1.[Br-] | 50 |
| C[N+](C)(CCCCCCCCCCCCOc1c(Br)cc(Br)cc1Br)Cc1ccc([N+](=O)[O-])o1.[Br-] | 200 |
| C[N+](C)(CCCCCCCCCCOc1c(Br)cc(Br)cc1Br)Cc1ccc(Br)o1.[Br-] | 10 |

Dear colleague, could you please provide MIC for the compounds listed below?
1. C[N+](C)(CCCCCOc1c(Br)cc(Br)cc1Br)Cc1ccco1.[Br-]
2. C[N+](C)(CCCCCCCCCCOc1c(Br)cc(Br)cc1Br)Cc1ccc([N+](=O)[O-])o1.[Br-]
3. Cc1cc(OCCCCCCC[N+](C)(C)Cc2ccc(Br)o2)c(C(C)C)cc1Cl.[Br-]
4. Cc1cc(OCCCCCCCCCCCC[N+](C)(C)Cc2ccc(Br)o2)c(C(C)C)cc1Cl.Cc1ccc(S(=O)(=O)[O-])cc1

# output
1: 25; 2: 2; 3: 10; 4: 200
